Molecular target: isolated kinase domain of the human FLT3 receptor (a.a. 571-993) (Homo sapiens)
Construct: human FLT3 receptor (a.a. 571-993)
Test: FLT3 fluorescence polarization kinase assay
Conditions: 150 uM ATP; uncertainty ±10%
pIC50: −log10 of the molar value.
Think of 8 as a floor: if pIC50 stands on it or above, it is fulfilled; beneath it, not fulfilled.

compound="CN1CCC(COc2ccc3c(C4CCN(C(=O)Nc5ccc(N6CCOCC6)nc5)CC4)ncnc3c2)CC1 [Example 108]" category_label=fulfilled

Q) Has O=C1CCCN1CCOc1ccc2c(C3CCN(C(=O)Nc4ccc(N5CCOCC5)cc4)CC3)ncnc2c1 [Example 85] a recorded pIC50 greater than or equal to 8?
A) not fulfilled

Q) hey, is pIC50 for this one >= 8? CCNC(=O)N1CCN(c2ccc3c(C4CCN(C(=O)Nc5ccc(N6CCCC6)cc5)CC4)ncnc3c2)CC1 [Compound 199]
A) not fulfilled

Q) Is pIC50 for O=C(Nc1ccc(N2CCOCC2)cc1)N1CCC(c2ncnc3cc(OCCCN4CCCC4)ccc23)CC1 [Example 124] at or above 8?
A) not fulfilled

Q) Evaluate CC(C)Oc1ccc(NC(=O)N2CCC(c3ncnc4cc(OCCN5CCCCC5)ccc34)CC2)cc1 [Example 34] : pIC50 at minimum 8?
A) not fulfilled

Q) Decide: is the reported value of pIC50 for O=C(NCCCOc1ccc2c(C3CCN(C(=O)Nc4ccc(N5CCOCC5)nc4)CC3)ncnc2c1)N1CCOCC1 [Example 113] equal to or greater than 8?
A) not fulfilled

Q) Quick check: does COc1cc2c(C3CCN(C(=O)Nc4ccc(N5CCCC5)cc4)CC3)ncnc2cc1OCCCN1CCN(C)CC1 [Compound 208] have pIC50 greater than or equal to 8?
A) fulfilled

Q) Exam item: decide whether the reported pIC50 for CN1CCN(CCCOc2ccc3c(C4CCN(C(=O)Nc5ccc(N6CCOCC6)nc5)CC4)ncnc3c2)CC1 [Example 80] is at least 8.
A) fulfilled

Q) Hi, just wondering whether CN1CCN(CCCOc2ccc3c(C4CCN(C(=O)Nc5ccc(N6CCOCC6)cc5)CC4)ncnc3c2)CC1 [Example 73] shows pIC50 of 8 or higher.
A) fulfilled

----------
Parameter IC50: see the listing below.
Target: wild-type FLT3 receptor (Homo sapiens)
Test: Cell-based FLT3 receptor ELISA (FLT ligand-induced phosphorylation in Baf3 FLT3 cells)
Settings: 100 ng/mL Flt ligand, uncertainty ±20%
Reply with just the number (in nM).

Known IC50 results, listed for orientation:
mol_smiles=COc1cc2ncnc(C3CCN(C(=O)Cc4ccc(C(C)C)cc4)CC3)c2cc1OC endpoint_unit=nM measurement=2
mol_smiles=O=C1CCCN1CCCOc1ccc2c(C3CCN(C(=O)Nc4cnc(N5CCCC5)nc4)CC3)ncnc2c1 endpoint_unit=nM measurement=279
mol_smiles=CN1CCC(COc2ccc3c(C4CCN(C(=O)Nc5ccc(OC6CCC6)nc5)CC4)ncnc3c2)CC1 endpoint_unit=nM measurement=21

Please turn your attention to the following entry.
Short answer for `O=C(Nc1ccc(N2CCOCC2)cc1)N1CCC(c2ncnc3cc(OCCCN4CCN(CCO)CC4)ccc23)CC1` : IC50 was 25

----------
Target: isolated kinase domain of the human FLT3 receptor (a.a. 571-993) (Homo sapiens, UniProt P36888)
Construct: human FLT3 receptor (a.a. 571-993)
Experiment: FLT3 fluorescence polarization kinase assay
Settings: 150 uM ATP; uncertainty ±10%
metric_name: IC50 (µM)
Answer format: numeric, µM implied, no suffix.

Completed entries (count: 3):
mol_smiles=CN(C)[C@@H]1CCN(c2ccc3c(C4CCN(C(=O)Nc5ccc(N6CCCC6)cc5)CC4)ncnc3c2)C1 measurement=0.046
mol_smiles=CN1CCN(CCCOc2ccc3c(C4CCN(C(=O)Nc5ccc(N6CCCC6)nc5)CC4)ncnc3c2)CC1 measurement=0.011
mol_smiles=CN1CCN(c2ccc3ncnc(C4CCN(C(=O)Nc5ccc(N6CCOCC6)cc5)CC4)c3c2)CC1 measurement=10.2

Query compound follows.
Note to self: IC50 recorded for `CC(C)c1ccc(NC(=O)CN2CCC(c3ncnc4ccccc34)CC2)cc1` was 0.056

----------
Biological target: isolated kinase domain of the human FLT3 receptor (a.a. 571-993) (Homo sapiens, UniProt P36888)
Construct: human FLT3 receptor (a.a. 571-993)
Assay: FLT3 fluorescence polarization kinase assay
Conditions: 150 uM ATP; uncertainty ±10%
metric_name: log10(IC50) (log10 of the value in µM)
Please note: log10 values; quantity IC50; unit µM.

Answered examples (5):
mol_smiles=COc1cc2ncnc(C3CCN(C(=O)Nc4ccc(OC(C)C)nc4)CC3)c2cc1OC measurement=-1.52
mol_smiles=O=C(Nc1ccc(N2CCCC2)cc1)N1CCC(c2ncnc3cc(N4CCC(F)CC4)ccc23)CC1 measurement=-0.79
mol_smiles=O=C(Nc1ccc(N2CCOCC2)cc1)N1CCC(c2ncnc3cc(N4CCC[C@H]4CO)ccc23)CC1 measurement=-1.48
mol_smiles=CC(C)Oc1ccc(NC(=O)N2CCC(c3ncnc4cc(NCCCN5CCN(C)CC5)ccc34)CC2)cc1 measurement=-2.30
mol_smiles=O=C1CN(c2ccc3c(C4CCN(C(=O)Nc5ccc(N6CCCC6)cc5)CC4)ncnc3c2)CCN1 measurement=-2.52

Recorded result, `COc1ccc(NC(=O)N2CCC(c3ncnc4cc(OC)c(OC)cc34)CC2)cc1` , log10(IC50): -0.14

Entry `O=C(Nc1ccc(N2CCOCC2)cc1)N1CCC(c2ncnc3cc(OCCCN4CCC[C@H]4CO)ccc23)CC1` ; log10(IC50) = -1.33

In plain terms, `O=C(Nc1ccc(N2CCCC2)cc1)N1CCC(c2ncnc3cc(OCC4CCOCC4)ccc23)CC1` has a documented log10(IC50) of -0.41

----------
Listed next: entries and their corresponding pIC50.
Molecular target: UniProt P36888
Sequence (P36888 27-993): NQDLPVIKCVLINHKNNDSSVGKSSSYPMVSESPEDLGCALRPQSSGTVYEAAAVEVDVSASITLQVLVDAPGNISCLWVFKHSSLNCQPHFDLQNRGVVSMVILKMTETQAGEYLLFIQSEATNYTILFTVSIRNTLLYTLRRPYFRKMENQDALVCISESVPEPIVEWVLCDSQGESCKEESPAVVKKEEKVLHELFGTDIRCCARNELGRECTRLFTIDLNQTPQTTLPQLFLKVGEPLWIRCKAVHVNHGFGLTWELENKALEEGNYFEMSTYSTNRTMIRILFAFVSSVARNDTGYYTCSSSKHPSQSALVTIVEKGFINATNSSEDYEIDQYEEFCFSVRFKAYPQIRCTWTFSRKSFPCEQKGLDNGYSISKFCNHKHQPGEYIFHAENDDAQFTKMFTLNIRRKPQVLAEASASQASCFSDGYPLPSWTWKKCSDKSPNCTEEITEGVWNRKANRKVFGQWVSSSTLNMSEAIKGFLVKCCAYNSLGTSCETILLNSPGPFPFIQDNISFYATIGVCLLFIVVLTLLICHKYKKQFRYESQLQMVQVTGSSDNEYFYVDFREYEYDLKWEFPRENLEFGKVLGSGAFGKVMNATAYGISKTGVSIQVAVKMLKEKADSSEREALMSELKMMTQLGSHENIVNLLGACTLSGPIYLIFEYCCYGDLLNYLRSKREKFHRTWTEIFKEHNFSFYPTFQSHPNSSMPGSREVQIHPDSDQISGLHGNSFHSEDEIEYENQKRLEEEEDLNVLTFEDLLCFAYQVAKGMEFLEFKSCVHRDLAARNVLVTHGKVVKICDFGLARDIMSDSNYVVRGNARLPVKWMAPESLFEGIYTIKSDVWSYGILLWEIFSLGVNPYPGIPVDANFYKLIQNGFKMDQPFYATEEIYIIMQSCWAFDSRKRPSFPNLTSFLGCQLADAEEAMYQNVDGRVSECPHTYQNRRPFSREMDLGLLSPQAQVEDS
Test: Cell-based FLT3 receptor ELISA (FLT ligand-induced phosphorylation in Baf3 FLT3 cells)
Conditions: 100 ng/mL Flt ligand, uncertainty ±20%
Description: Specific cellular inhibition of FLT ligand-induced wild-type FLT3 phosphorylation was measured in the following manner: Baf3 FLT3 cells overexpressing the FLT3 receptor were obtained from Dr. Michael Heinrich (Oregon Health and Sciences University). The Baf3 FLT3 cell lines were created by stable transfection of parental Baf3 cells (a murine B cell lymphoma line dependent on the cytokine IL-3 for growth) with wild-type FLT3. […]
A value of pIC50 is the negative decimal logarithm of a concentration given in moles per litre.

Please review the entries below; each comes with its answer.
mol_smiles=CN(C)C(=O)N1CCN(CCCOc2ccc3c(C4CCN(C(=O)Nc5ccc(N6CCCC6)cc5)CC4)ncnc3c2)CC1 metric_name=pIC50 measurement=8.40
mol_smiles=CS(=O)(=O)OCCCOc1ccc2c(C3CCN(C(=O)Nc4ccc(N5CCOCC5)cc4)CC3)ncnc2c1 metric_name=pIC50 measurement=6.96
mol_smiles=CN1CCN(CCCOc2ccc3c(C4CCN(C(=O)Nc5ccc(N6CCOCC6)nc5)CC4)ncnc3c2)CC1 metric_name=pIC50 measurement=7.72
mol_smiles=COc1cc2ncnc(C3CCN(C(=O)Nc4ccc(C5CCN(C(=O)OC(C)(C)C)CC5)cc4)CC3)c2cc1OC metric_name=pIC50 measurement=6.12
mol_smiles=CC(C)c1ccc(NC(=O)N2CCC(c3ncnc4ccccc34)CC2)cc1 metric_name=pIC50 measurement=6.44
mol_smiles=O=C(Nc1ccc(N2CCOCC2)cc1)N1CCC(c2ncnc3cc(N4CCNCC4)ccc23)CC1 metric_name=pIC50 measurement=7.51
mol_smiles=O=C1CCCN1CCOc1ccc2c(C3CCN(C(=O)Nc4ccc(N5CCOCC5)cc4)CC3)ncnc2c1 metric_name=pIC50 measurement=7.12
mol_smiles=COCCOc1ccc(NC(=O)N2CCC(c3ncnc4cc(OC)c(OC)cc34)CC2)cc1 metric_name=pIC50 measurement=5.82

Let me check: `CC(C)Oc1ccc(NC(=O)N2CCC(c3ncnc4cc(OCCN5CCOC5=O)ccc34)CC2)cc1` , system UniProt P36888, measured pIC50 is 7.77

Item `CS(=O)(=O)N1CCN(CCCOc2ccc3c(C4CCN(C(=O)Nc5ccc(N6CCOCC6)cc5)CC4)ncnc3c2)CC1` was tested on UniProt P36888; the reported pIC50 is 8.00

For `COc1cc2c(C3CCN(C(=O)Nc4ccc(N5CCOCC5)cc4)CC3)ncnc2cc1OCCCN1CCN(C)CC1` on UniProt P36888, measured pIC50 was 7.38

Measured pIC50 (UniProt P36888), entry `CS(=O)(=O)CCNc1ccc2c(C3CCN(C(=O)Nc4ccc(N5CCOCC5)cc4)CC3)ncnc2c1` : 7.06

Sample `COc1cc2ncnc(C3CCN(C(=O)Nc4ccc(C(C)(C)C)cc4)CC3)c2cc1OC` , system: UniProt P36888. Its pIC50 is 8.30

Considering `COc1cc2ncnc(C3CCN(C(=O)Nc4ccc(CO)cc4)CC3)c2cc1OC` , its pIC50 with UniProt P36888 was recorded as 5.29

Tested system UniProt P36888; pIC50 recorded for `CC(C)Oc1ccc(NC(=O)N2CCC(c3ncnc4ccccc34)CC2)cc1` was 6.07

The reported pIC50 value, UniProt P36888, for `O=C(Nc1ccc(N2CCCC2)nc1)N1CCC(c2ncnc3cc(OCCN4CCOC4=O)ccc23)CC1` reads 7.92
